Would you mind telling me the reported IC50 of each entry?
Test system: UM-UC-3 bladder cell line
Assay: 7-day proliferation assay, UM-UC-3
Type: cell-based
Conditions: Homo sapiens, UMUC3, 168 h; UM-UC-3, 7 days, CellTiter-Glo
Numbers only, in nM.

{"Smiles Record": "CCn1ncc(CN(C)C(=O)c2cc(-c3ccc(NCCNC)c(C)n3)nc3ccc(Cl)cc23)c1C", "Property Measured": "IC50", "Quantitative Result": 792}
{"Smiles Record": "CCc1ncc(CN(C)C(=O)c2cc(-c3ccc(NCCN(C)C)c(C)n3)nc3ccc(Cl)cc23)n1C", "Property Measured": "IC50", "Quantitative Result": 1100}
{"Smiles Record": "CCc1noc(CN(C)C(=O)c2cc(-c3ccc(NCCNC)c(C)n3)nc3ccc(Cl)cc23)c1C", "Property Measured": "IC50", "Quantitative Result": 1380}

Next, consider the following compound.
IC50 in this record for CCn1ncc(CN(C)C(=O)c2cc(-c3ccc(NC4CN(C)C4)c(C)n3)nc3ccc(Cl)cc23)c1C : 584

###

Exercise: for every item that follows, state its recorded IC50.
Tested on: H3K18Ac in HB-CLS-2 cells
Experiment: H3K18AC in-cell western (ICW) assay
Type: cell-based
Details: H3K18Ac in-cell western; read-out: CREBBP ICW IC50
Excerpt: The following example describes methods and materials relating to an H3K18AC in-cell western assay. IC50 values (micromolar (μM)) are summarized in Table 1, Table 2, and Table 3 under the column labeled: “CREBBP ICW IC50 (micromolar).” […] METHOD: Cell Treatment, ICW for detection of H3K18Ac and DNA content. […] Plates were allowed to dry at room temperature then imaged on the Licor Odyssey CLx machine which measured integrated intensity at 700 nm and 800 nm wavelengths. […]
Give bare numbers, in µM.

{"Smiles Record": "CCc1nc(-c2cc(C(=O)N(C)Cc3onc(CC)c3C)c3cc(COC)ccc3n2)ccc1NCCN(C)C", "Target Of Assay": "H3K18Ac in HB-CLS-2 cells", "Output Unit": "µM", "IC50": 0.17}
{"Smiles Record": "CCn1ncc(CN(C)C(=O)c2nc(-c3ccc4cc[nH]c4c3)nc3ccc(Cl)cc23)c1C", "Target Of Assay": "H3K18Ac in HB-CLS-2 cells", "Output Unit": "µM", "IC50": 0.78}
{"Smiles Record": "CCn1ncc(CN(C)C(=O)c2nc(-c3cc(C)nc(N)c3)nc3ccc(Cl)cc23)c1C", "Target Of Assay": "H3K18Ac in HB-CLS-2 cells", "Output Unit": "µM", "IC50": 0.22}

Attention now turns to another entry.
For reference, reported IC50 for CCn1ncc(CN(C)C(=O)c2cc(-c3ccc(NCCNC)c(C)n3)nc3ccc(Cl)cc23)c1COC stands at 0.838

###

Biological target: CREBBP (1084-1701) (Homo sapiens)
Construct: measured in the following biochemical assay using CREBBP (1084-1701); purchased
Assay: Biochemical assay for CREBBP (1084-1701), SAMDI
Details: SAMDI, read-out: CREBBP Biochemistry IC50
Record form. Attribute: log10 IC50. Fill in for each entry.
For clarity, the numbers are log10 values of IC50 expressed in nM.

// below: answered compounds
{"Compound": "CCn1ncc(CN(C)C(=O)c2nc(-c3cc(C(=O)NCCCN4CCCC4)[nH]n3)nc3ccc(Cl)cc23)c1C [Compound 75]", "log10 IC50": 2.11}
{"Compound": "CCn1ncc(CN(C)C(=O)c2nc(-c3cc(C)nc(N)c3)nc3ccc(Cl)cc23)c1C [Compound 28]", "log10 IC50": 1.46}
{"Compound": "CCn1ncc(CN(C)C(=O)c2nc(-c3cc4[nH]cnc4cc3C)nc3ccc(Cl)cc23)c1C [Compound 17]", "log10 IC50": 1.78}

Provide log10 IC50 values for the following items, in order.
1. CCn1ncc(CN(C)C(=O)c2cc(-c3ccc(NC(=O)CNC)c(C)n3)nc3ccc(Cl)cc23)c1C [Compound 74]
2. CCn1ncc(CN(C)C(=O)c2nc(-c3ccc4c[nH]nc4c3Cl)nc3ccc(COC)cc23)c1C [Compound 68]
3. CCn1ncc(CN(C)C(=O)c2nc(-c3cc(CN(C)Cc4ccc(OC)cc4)nn3C)nc3ccc(Cl)cc23)c1C [Compound 176]
4. CCn1ncc(CN(C)C(=O)c2cc(-c3ccc(OCC(O)CNC)c(C)n3)nc3ccc(Cl)cc23)c1C (stereo not shown) [Compound 435]

// result
3.32
2.40
4.93
1.57

###

Assign pIC50 to each entry below.
Biological target: CREBBP (1084-1701) (Homo sapiens, UniProt Q92793)
Construct: measured in the following biochemical assay using CREBBP (1084-1701); purchased
Sequence (Q92793 1084-1701): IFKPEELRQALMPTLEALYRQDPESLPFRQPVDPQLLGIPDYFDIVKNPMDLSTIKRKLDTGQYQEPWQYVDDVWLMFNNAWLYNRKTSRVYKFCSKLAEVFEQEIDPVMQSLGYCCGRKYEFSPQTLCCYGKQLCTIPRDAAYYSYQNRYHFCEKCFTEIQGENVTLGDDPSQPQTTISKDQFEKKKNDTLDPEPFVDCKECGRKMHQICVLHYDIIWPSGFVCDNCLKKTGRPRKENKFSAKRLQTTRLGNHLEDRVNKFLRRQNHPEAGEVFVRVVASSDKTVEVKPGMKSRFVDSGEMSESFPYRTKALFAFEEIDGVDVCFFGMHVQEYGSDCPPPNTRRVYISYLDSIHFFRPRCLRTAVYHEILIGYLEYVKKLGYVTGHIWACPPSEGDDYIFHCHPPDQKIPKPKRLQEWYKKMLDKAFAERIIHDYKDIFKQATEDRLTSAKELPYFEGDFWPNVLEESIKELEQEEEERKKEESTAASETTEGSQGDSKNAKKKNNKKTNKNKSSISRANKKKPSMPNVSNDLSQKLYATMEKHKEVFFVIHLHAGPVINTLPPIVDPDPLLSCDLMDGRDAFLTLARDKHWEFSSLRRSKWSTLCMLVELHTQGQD
Assay: Biochemical assay for CREBBP (1084-1701), SAMDI
Conditions: SAMDI, read-out: CREBBP Biochemistry IC50
Answers are plain numbers, as −log10 of the molar value.

Use these answered entries as a reference point.
{"Smiles Record": "CCn1ncc(CN(C)C(=O)c2nc(-c3ccc(OCCCNC)cc3C)nc3ccc(Cl)cc23)c1C", "Target Of Assay": "CREBBP (1084-1701) (Homo sapiens, UniProt Q92793)", "pIC50": 7.17}
{"Smiles Record": "CCn1ncc([C@@H](C)N(C)C(=O)c2cc(-c3ccc(NCCNC)c(C)n3)nc3ccc(Cl)cc23)c1C", "Target Of Assay": "CREBBP (1084-1701) (Homo sapiens, UniProt Q92793)", "pIC50": 7.03}
{"Smiles Record": "CCn1ncc(CN(C)C(=O)c2nc(-c3cc(C)nc(NCCNC)c3)nc3ccc(COC)cc23)c1C", "Target Of Assay": "CREBBP (1084-1701) (Homo sapiens, UniProt Q92793)", "pIC50": 7.23}

The record that follows has no pIC50 shown yet.
// sample CCn1ncc(CN(C)C(=O)c2nc(-c3ccc(OCCCN(C)C(=O)OC(C)(C)C)c(C)c3)nc3ccc(Cl)cc23)c1C , its pIC50 was 4.74

###

Biological target: EP300 (P300(1048-1664)) (Homo sapiens)
Construct: P300(1048-1664)
Sequence (Q09472 1048-1664): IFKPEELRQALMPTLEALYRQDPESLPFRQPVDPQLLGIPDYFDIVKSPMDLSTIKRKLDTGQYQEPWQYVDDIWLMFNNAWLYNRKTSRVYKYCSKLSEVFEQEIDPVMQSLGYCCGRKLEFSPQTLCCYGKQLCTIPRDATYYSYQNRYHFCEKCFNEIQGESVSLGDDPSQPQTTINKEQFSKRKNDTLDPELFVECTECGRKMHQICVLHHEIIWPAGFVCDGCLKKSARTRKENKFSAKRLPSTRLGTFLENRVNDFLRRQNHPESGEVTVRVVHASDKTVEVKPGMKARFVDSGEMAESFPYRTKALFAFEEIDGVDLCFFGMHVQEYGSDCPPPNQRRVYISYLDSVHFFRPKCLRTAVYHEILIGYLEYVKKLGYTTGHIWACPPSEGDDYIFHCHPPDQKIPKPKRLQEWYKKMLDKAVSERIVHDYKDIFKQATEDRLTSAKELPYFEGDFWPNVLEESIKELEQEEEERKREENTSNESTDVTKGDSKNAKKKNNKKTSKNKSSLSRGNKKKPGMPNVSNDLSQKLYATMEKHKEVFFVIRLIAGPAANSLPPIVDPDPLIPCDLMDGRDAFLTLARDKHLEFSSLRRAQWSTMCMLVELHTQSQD
Experiment: Biochemical assay for EP300, SAMDI
Settings: EP300, SAMDI; read-out: EP300 Biochemistry IC50
Record form. Attribute: IC50. Fill in for each entry.

Known results for compounds:
{"Compound": "CCn1ncc(CN(C)C(=O)c2cc(-c3cc(N[C@@H]4CCNC4)cc(C)n3)nc3ccc(Cl)cc23)c1C", "Target Of Assay": "EP300 (P300(1048-1664)) (Homo sapiens)", "Result": "6.3 nM"}
{"Compound": "CCn1ncc(CN(C)C(=O)c2nc(-c3ccc(OCCN(C)C(=O)OC(C)(C)C)c(Cl)c3)nc3ccc(Cl)cc23)c1C", "Target Of Assay": "EP300 (P300(1048-1664)) (Homo sapiens)", "Result": "2800 nM"}
{"Compound": "CCn1ncc(CN(C)C(=O)c2nc(-c3ccc(OCC(O)CNC)c(Cl)c3)nc3ccc(Cl)cc23)c1C (stereo not shown)", "Target Of Assay": "EP300 (P300(1048-1664)) (Homo sapiens)", "Result": "33 nM"}

Could you now look at the following compound, please?
The measured IC50 associated with CCn1ncc(CN(C)C(=O)c2cc(-c3ccc(NC(=O)CNC)c(C)n3)nc3ccc(Cl)cc23)c1C reads 1100 nM

###

Molecular target: CREBBP (1084-1701) (Homo sapiens, UniProt Q92793)
Construct: measured in the following biochemical assay using CREBBP (1084-1701); purchased
Experiment: Biochemical assay for CREBBP (1084-1701), SAMDI
Conditions: SAMDI, read-out: CREBBP Biochemistry IC50
Assignment: determine reported pIC50 for the given molecules.
Numbers only, as −log10 of the molar value.

Worked examples, 2 molecules total:
{"Smiles Record": "CCn1ncc(CN(C)C(=O)c2cc(-c3ccccc3Cl)nc3c(Cl)cccc23)c1C", "Quantitative Result": 4.59}
{"Smiles Record": "CCc1cc(-c2nc(C(=O)N(C)Cc3cnn(CC)c3C)c3cc(Cl)ccc3n2)ccc1NC1CCOCC1", "Quantitative Result": 7.49}

Provide pIC50 for all items below, preserving their order.
1. CCn1ncc(CN(C)C(=O)c2nc(-c3ccc(OCCNC(=O)OC(C)(C)C)c(C)c3)nc3ccc(Cl)cc23)c1C
2. CCn1ncc(CN(C)C(=O)c2cc(-c3ccc(OCCNC)c(C)n3)nc3ccc(Cl)cc23)c1C

// result
1: 6.89; 2: 7.11

###

Tested on: H3K18Ac in HB-CLS-2 cells
Experiment: H3K18AC in-cell western (ICW) assay
Type: cell-based
Conditions: H3K18Ac in-cell western; read-out: CREBBP ICW IC50
Excerpt: The following example describes methods and materials relating to an H3K18AC in-cell western assay. IC50 values (micromolar (μM)) are summarized in Table 1, Table 2, and Table 3 under the column labeled: “CREBBP ICW IC50 (micromolar).” […] METHOD: Cell Treatment, ICW for detection of H3K18Ac and DNA content. […] Plates were allowed to dry at room temperature then imaged on the Licor Odyssey CLx machine which measured integrated intensity at 700 nm and 800 nm wavelengths. […]
Property Measured: IC50 (nM)
Answers are plain numbers, in nM.

Example entries begin here.
{"Compound": "CCn1ncc(CN(C)C(=O)c2cc(-c3ccccc3Cl)nc3ccc(Cl)cc23)c1C", "Output Unit": "nM", "Quantitative Result": 1800}
{"Compound": "CCn1ncc(CN(C)C(=O)c2nc(-c3cnnc(N)c3)nc3ccc(Cl)cc23)c1C", "Output Unit": "nM", "Quantitative Result": 1720}
{"Compound": "CCn1ncc(CN(C)C(=O)c2nc(-c3ccc(OCCNC)c(Cl)c3)nc3ccc(Cl)cc23)c1C", "Output Unit": "nM", "Quantitative Result": 180}
{"Compound": "CCn1ncc([C@@H](C)N(C)C(=O)c2cc(-c3ccc(NCCNC)c(C)n3)nc3ccc(Cl)cc23)c1C", "Output Unit": "nM", "Quantitative Result": 107}
{"Compound": "CCn1ncc(CN(C)C(=O)c2cc(-c3ccc(OCC(O)CNC)c(C)n3)nc3ccc(COC)cc23)c1C (stereo not drawn)", "Output Unit": "nM", "Quantitative Result": 937}

Answer for every listed entry: what is its IC50? The entries follow.
1. CCn1ncc(CN(C)C(=O)c2nc(-c3cc(C(=O)NC4CCN(C)CC4)nn3C)nc3ccc(Cl)cc23)c1C
2. CCc1ncc(CN(C)C(=O)c2cc(-c3ccc(NCC(O)CNC)c(C)n3)nc3ccc(Cl)cc23)n1C (stereo not drawn)
3. CCn1ncc(CN(C)C(=O)c2nc(-c3cc4c(NC(C)=O)n[nH]c4cc3C)nc3ccc(Cl)cc23)c1C

// result
1. 11000
2. 428
3. 1200
